test system: johnsongrass (Sorghum halepense); assay: Test C pre-/postemergence: johnsongrass; format: in vivo; settings: Postemergence, 31 g ai/ha; scale 0 to 100 (0 no effect, 100 complete control)
Outcome Measure: Plant response rating, Johnsongrass

// returns reported Plant response rating, Johnsongrass for input CCc1nn(-c2ccc(F)c(F)c2)nc1Oc1ccnc(C(F)(F)F)c1 [Compound 171] 15

// returns reported Plant response rating, Johnsongrass for input Fc1ccc(-n2nc(Cc3ccnc(C(F)(F)F)c3)c(OC(F)F)n2)cc1 [Compound 25] 5

// returns reported Plant response rating, Johnsongrass for input CCc1nn(-c2ccc(C(F)(F)F)cc2)nc1Cc1ccnc(C(F)(F)F)c1 [Compound 155] 20

// returns reported Plant response rating, Johnsongrass for input CCCc1nn(-c2ccc(F)c(F)c2)nc1Oc1ccnc(C(F)(F)F)c1 [Compound 172] 35

// returns reported Plant response rating, Johnsongrass for input Cc1nn(-c2ccc(F)c(C(F)(F)F)c2)nc1Cc1ccnc(C(F)(F)F)c1 [Compound 156] 45

// returns reported Plant response rating, Johnsongrass for input FCc1nn(-c2ccc(F)cc2)nc1Oc1ccnc(C(F)(F)F)c1 [Compound 160] 15

// returns reported Plant response rating, Johnsongrass for input CCc1nn(-c2ccc(C(F)(F)F)cc2)nc1Oc1ccnc(C(F)(F)F)c1 [Compound 169] 15

// returns reported Plant response rating, Johnsongrass for input CCOc1nn(-c2ccc(F)cc2)nc1Cc1ccnc(C(F)(F)F)c1 [Compound 196] 80

// returns reported Plant response rating, Johnsongrass for input CCOc1nn(-c2ccc(Cl)cc2)nc1Cc1ccnc(C(F)(F)F)c1 [Compound 188] 45

====

test system: kochia (Kochia scoparia); assay: Test D pre-/postemergence: kochia; assay type: in vivo; conditions: Preemergence, 31 g ai/ha; scale 0 to 100, 0 no effect, 100 complete control
Outcome Measure: Plant response rating, Kochia
Lab note: record the figure alone, no unit after it.

// returns reported Plant response rating, Kochia for input CCOc1nn(-c2ccc(F)cc2)nc1Cc1ccnc(C(F)(F)F)c1 [Compound 196] 70

// returns reported Plant response rating, Kochia for input Cc1nn(-c2ccc(C(F)(F)F)c(F)c2)nc1Oc1ccnc(C(F)(F)F)c1 [Compound 148] 20

// returns reported Plant response rating, Kochia for input Cc1nn(-c2ccc(C(F)(F)F)cn2)nc1Cc1cccc(C(F)(F)F)c1 [Compound 106] 0

// returns reported Plant response rating, Kochia for input COc1nn(-c2ccc(C(F)(F)F)cc2)nc1Cc1ccnc(C(F)(F)F)c1 [Compound 15] 0

====

system: deadnettle (henbit deadnettle, Lamium amplexicaule); assay: Test C postemergence: deadnettle; assay type: in vivo; settings: 125 g ai/ha, scale 0 to 100, 0 no effect, 100 complete control
I'd be grateful if you could share measured Plant response rating, Deadnettle for these entries.
Lab note: record the figure alone, no unit after it.

// returns reported Plant response rating, Deadnettle for input Cc1nn(-c2ccc(C(F)(F)F)cn2)nc1Oc1ccnc(C(F)(F)F)c1 85

// returns reported Plant response rating, Deadnettle for input FC(F)(F)c1ccc(-n2nc(Cl)c(Cc3ccnc(C(F)(F)F)c3)n2)cc1 90

// returns reported Plant response rating, Deadnettle for input Cc1nn(-c2ccc(C(F)(F)F)cn2)nc1Cc1cccc(C(F)(F)F)c1 90

// returns reported Plant response rating, Deadnettle for input FC(F)Oc1nn(-c2ccc(C(F)(F)F)cc2)nc1Cc1ccnc(C(F)(F)F)c1 98
